Assay: Tanguay_ZF_120hpf_MORT_legacy: (Legacy) Oregon State University Tanguay Lab 120 Hour Post-fertilization zebrafish Assay for Mortality (AID 2283633)
Experimental: Tanguay_ZF_120hpf_legacy is a whole embryo, multiplexed endpoint assay using zebrafish larvae exposed for 120 hours post fertilization on a 96-well plate.Tanguay_ZF_120hpf_MORT_legacy is one of one assay component(s) measured or calculated from the Tanguay_ZF_120hpf_legacy assay. […] This assay endpoint, Tanguay_ZF_120hpf_MORT_legacy, was analyzed in the positive analysis fitting direction relative to DMSO as the negative control and baseline of activity. […]
Calls of active or inactive are those of the source. How the source made its calls: active means hit-call score of the fitted dose curve at least 0.9, where 1 is the maximum; inconclusive means response in the unintended direction; inactive means score below 0.9.
Outcome codes: True for active, False for inactive

{"MOLECULE": "CN(C)c1ccccc1", "LABEL CLASS": "False"}
{"MOLECULE": "CCCCCCCCOC(=O)c1ccc(C(=O)OCCCCCCCC)c(C(=O)OCCCCCCCC)c1", "LABEL CLASS": "False"}
{"MOLECULE": "ClC1=C(Cl)C2(Cl)C3C(Cl)C=CC3C1(Cl)C2(Cl)Cl (centres undefined)", "LABEL CLASS": "False"}
{"MOLECULE": "COc1cc(C=O)cc2c1[C@H](COC(N)=O)[C@]1(OC(C)=O)ON2C[C@H]2[C@@H]1N2C(C)=O", "LABEL CLASS": "False"}
{"MOLECULE": "Cc1cccc(N)c1N", "LABEL CLASS": "False"}
{"MOLECULE": "Brc1ccc(Oc2ccccc2)cc1", "LABEL CLASS": "False"}
{"MOLECULE": "O=Cc1ccco1", "LABEL CLASS": "False"}
{"MOLECULE": "O=[N+]([O-])C(Br)(CO)CO", "LABEL CLASS": "False"}
{"MOLECULE": "OCCOCCO", "LABEL CLASS": "False"}
{"MOLECULE": "Nc1ccc(Cl)cc1N", "LABEL CLASS": "True"}
{"MOLECULE": "C1=Cc2cccc3cccc1c23", "LABEL CLASS": "False"}
{"MOLECULE": "Nc1ccc(N=Nc2ccccc2)cc1", "LABEL CLASS": "False"}
{"MOLECULE": "O=[N+]([O-])c1ccc(Oc2ccc(Cl)cc2Cl)cc1", "LABEL CLASS": "False"}
{"MOLECULE": "O=C(Nc1ccccc1)c1ccccc1I", "LABEL CLASS": "False"}

====

assay: CCTE_Mundy_HCI_Cortical_NOG_NeuriteLength: CCTE's Neurite Outgrowth Assay in rat cortical cells for Neurite Length, Mundy Lab (AID 2284213)
Calls of active or inactive are those of the source. Rule for the calls: active = hit-call score of the fitted dose curve at least 0.9, where 1 is the maximum; inactive = score below 0.9.
Outcome codes: active, inactive

{"COMPOUND": "CC(C)COC(=O)c1ccccc1C(=O)OCC(C)C", "LABEL CLASS": "inactive"}
{"COMPOUND": "COP(=S)(OC)SCN1C(=O)c2ccccc2C1=O", "LABEL CLASS": "inactive"}
{"COMPOUND": "CCC[CH2][Sn]([Cl])([CH2]CCC)[CH2]CCC", "LABEL CLASS": "active"}
{"COMPOUND": "[O-][Cl+]O", "LABEL CLASS": "inactive"}
{"COMPOUND": "CC(C)(C)C(O)(CCc1ccc(Cl)cc1)Cn1cncn1 (configuration not stated)", "LABEL CLASS": "inactive"}
{"COMPOUND": "COC(=O)Nc1nc2ccccc2[nH]1", "LABEL CLASS": "active"}
{"COMPOUND": "CCCCOC(=O)c1ccccc1C(=O)OCc1ccccc1", "LABEL CLASS": "inactive"}
